# assay-target: Androgen receptor (Homo sapiens)
# Sequence (P10275 whole entry): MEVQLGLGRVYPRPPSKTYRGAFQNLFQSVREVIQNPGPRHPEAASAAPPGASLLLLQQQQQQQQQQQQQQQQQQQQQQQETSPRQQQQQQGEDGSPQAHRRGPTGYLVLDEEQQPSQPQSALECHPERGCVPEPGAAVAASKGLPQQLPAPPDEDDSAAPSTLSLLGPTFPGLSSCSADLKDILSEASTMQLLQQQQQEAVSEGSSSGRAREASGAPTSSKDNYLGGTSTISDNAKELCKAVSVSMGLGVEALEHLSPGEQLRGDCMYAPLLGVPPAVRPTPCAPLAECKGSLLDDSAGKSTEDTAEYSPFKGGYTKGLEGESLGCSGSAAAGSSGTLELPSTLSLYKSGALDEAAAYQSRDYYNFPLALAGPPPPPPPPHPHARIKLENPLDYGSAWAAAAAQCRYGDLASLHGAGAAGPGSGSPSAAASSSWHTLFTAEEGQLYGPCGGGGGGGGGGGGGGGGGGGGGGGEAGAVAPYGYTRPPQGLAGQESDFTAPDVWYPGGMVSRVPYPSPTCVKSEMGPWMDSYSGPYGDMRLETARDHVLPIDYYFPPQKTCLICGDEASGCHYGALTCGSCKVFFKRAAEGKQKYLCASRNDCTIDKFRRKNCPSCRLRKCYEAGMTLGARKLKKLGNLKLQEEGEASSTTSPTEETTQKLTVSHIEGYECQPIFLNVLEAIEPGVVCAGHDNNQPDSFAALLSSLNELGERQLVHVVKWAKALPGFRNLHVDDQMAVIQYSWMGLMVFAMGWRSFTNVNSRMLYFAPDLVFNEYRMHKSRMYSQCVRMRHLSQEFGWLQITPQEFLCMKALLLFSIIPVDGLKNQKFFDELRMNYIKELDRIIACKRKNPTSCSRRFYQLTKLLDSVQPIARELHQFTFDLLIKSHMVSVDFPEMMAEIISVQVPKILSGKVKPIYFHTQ
pIC50: −log10 of the molar value.
I would appreciate it if you labelled entries class 1 when pIC50 is 6 or higher, otherwise class 0.

molecule | label
CC1(C)NC(=O)N(c2ccc(C(F)(F)F)nc2)C1=O | class 0
CC1(C)C(=O)N(c2ccc(F)c(C(F)(F)F)c2)C(=O)N1CCc1ccccc1 | class 0
O=C1C2CCCN2C(=O)N1c1ccc(F)c(C(F)(F)F)c1 (stereo unspecified) | class 0
CCN1C(=O)N(c2ccc(F)c(C(F)(F)F)c2)C(=O)C1(C)C | class 1

###

# assay-procedure: AUC (0 to last) in male Swiss mouse at 100 mg/kg, po administered via gavage measured upto 48 hrs postdose by LC-MS analysis
# Format: ADME, organism-based
# Design: route oral, dose 100 mg/kg, time <=48
# assay-setup: in vivo
Catalogue of AUClast readings, one per entry.

molecule | AUClast (µM·h)
CC1(C)NC(=O)N(c2ccnc(C(F)(F)F)c2)C1=O | 6480
CC1(C)NC(=O)N(c2ccc(F)c(C(F)F)c2)C1=O | 3190
CN(C)C(=O)c1cc(N2C(=O)NC(C)(C)C2=O)ccc1F | 1360
O=C1NC2(CCCC2)C(=O)N1c1ccc(F)c(C(F)(F)F)c1 | 106
CCN1C(=O)N(c2ccc(F)c(C(F)(F)F)c2)C(=O)C1(C)C | 103
CC1(C)NC(=O)N(c2ccc(F)c(C(F)(F)F)c2)C1=O | 2740
